System: Phospho-Rb (Ser807/811) in OVCAR3 cells
experiment: Phospho-Rb expression inhibition in OVCAR3 cells quantified by In Cell Western
Type: cell-based
testSettings: Homo sapiens, OVCAR-3, 24 hours, read-out: OVCAR-3 pRb IC50
pIC50: −log10 of the molar value.
assayMetric: pIC50

linenotation=O=C1NCCCCCc2cc(cc(C(F)F)n2)Nc2cc([nH]n2)[C@H]2CC[C@H](C2)O1 assaymetric=pIC50 result="8.00 to 8.70"
linenotation=C[C@H]1CCCOc2nccc(c2F)Nc2cc(n[nH]2)[C@H]2CC[C@H](C2)OC(=O)N1 assaymetric=pIC50 result="8.00 to 8.70"

## Task Quick one: pIC50 of `[2H]C1([2H])CC[C@H](C)NC(=O)O[C@@H]2CC[C@@H](C2)c2cc([nH]n2)Nc2ccnc(c2)O1` ?
## Result 7.30 to 8.00

---

Tested on: Phospho-Rb (Ser807/811) in OVCAR3 cells
experiment: Phospho-Rb expression inhibition in OVCAR3 cells quantified by In Cell Western
Format: cell-based
testSettings: Homo sapiens, OVCAR-3, 24 hours, read-out: OVCAR-3 pRb IC50
Method: Phospho-Rb Expression Inhibition in OVCAR3 Cells Quantified by in Cell Western OVCAR3 cells were obtained from American Type Culture Collection (ATCC, HTB-161). […] 100 uL fresh PBS was added to each well and the plates were imaged on a LI-COR Odyssey CLX plate reader.
pIC50: −log10 of the molar value.
assayMetric: pIC50

linenotation=C[C@H]1CCCOc2nccc(n2)Nc2cc(n[nH]2)[C@H]2CC[C@H](C2)OC(=O)N1 assaymetric=pIC50 result="≥ 8.70"
linenotation=C[C@@H]1CCC(C)(C)NC(=O)O[C@@H]2CC[C@@H](C2)c2cc([nH]n2)Nc2cncc(c2)O1 assaymetric=pIC50 result="< 6.60"
linenotation=C[C@H]1CCCOc2cc(cc(F)n2)Nc2cc(n[nH]2)[C@H]2CC[C@H](C2)OC(=O)N1 assaymetric=pIC50 result="7.30 to 8.00"
linenotation=O=C1NC23CC(COc4cc(cc(C(F)F)n4)Nc4cc([nH]n4)[C@H]4CC[C@H](C4)O1)(C2)C3 assaymetric=pIC50 result="8.00 to 8.70"
linenotation=C[C@H]1CC(F)(F)COc2cc(ccn2)Nc2[nH]nc(c2F)[C@H]2CC[C@H](C2)OC(=O)N1 assaymetric=pIC50 result="7.30 to 8.00"
linenotation=C[C@H]1CC23CC(C2)(C3)NC(=O)O[C@@H]2CC[C@@H](C2)c2cc([nH]n2)Nc2ccnc(c2)O1 assaymetric=pIC50 result="≥ 8.70"
linenotation=O=C1NC23CC(C/C=C/c4cc(ccn4)Nc4cc(n[nH]4)[C@H]4CC[C@H](C4)O1)(C2)C3 assaymetric=pIC50 result="≥ 8.70"
linenotation=O=C1NC23CC(CCc4cc(ccn4)Nc4cc([nH]n4)[C@H]4CC[C@H](C4)O1)(C2)C3 assaymetric=pIC50 result="8.00 to 8.70"
linenotation=O=C1NC2CC(COc3cc(ccn3)Nc3cc(n[nH]3)C3C[C@H](F)[C@@H](C3)O1)C2 assaymetric=pIC50 result="7.30 to 8.00"
linenotation=C[C@@H]1CC[C@H](C)Oc2cc(ccn2)Nc2cc(n[nH]2)[C@H]2CC[C@H](C2)OC(=O)N1 assaymetric=pIC50 result="7.30 to 8.00"

## Task Reported pIC50 for Phospho-Rb (Ser807/811) in OVCAR3 cells, given `[2H]C1([2H])CC[C@H](C)NC(=O)O[C@@H]2CC[C@@H](C2)c2cc([nH]n2)Nc2cc(F)nc(c2)O1` ?
## Result 7.30 to 8.00

## Task One more compound: `O=C1NC2CC3(C2)CC(C3)Oc2cc(ccn2)Nc2cc(n[nH]2)[C@H]2CC[C@H](C2)O1`
## Result 8.00 to 8.70
